Taken from patent US9834564B2.

Items are presented alongside their recorded IC50.
target: recombinant human PDE-10 enzyme (PDE-10A) (Homo sapiens (Human)); test: IMAP PDE Fluorescence Polarization assay, human PDE-10 inhibition (enzyme assay); assay type: biochemical; conditions: recombinant human PDE-10, fluorescein-labeled cAMP/cGMP substrate, 40 min at 37° C.
property.name: IC50

>>> meas_value("c1ccc2nc(CCc3nc4c(ccc5ncccc54)[nH]3)ccc2c1 [Compound 86]")
"< 500 nM"
>>> meas_value("Fc1cnc2nc(CCc3nc4c5cccnc5ccn4n3)ccc2c1 [Compound 181]")
"< 500 nM"
>>> meas_value("O=c1[nH]c(CCc2ncc(-c3ccccc3)o2)nc2ccccc12 [Compound 110]")
"> 10000 nM"
>>> meas_value("c1ccc2nc(CCc3nc4ccccc4s3)cnc2c1 [Compound 117]")
"1000 to 10000 nM"
>>> meas_value("Fc1ccccc1-c1c[nH]c(CCc2cnc3ccccc3n2)n1 [Compound 75]")
"< 500 nM"

* * *

molecular target: recombinant human PDE-10 enzyme (PDE-10A) (Homo sapiens (Human)); assay: IMAP PDE Fluorescence Polarization assay, human PDE-10 inhibition (enzyme assay); assay type: biochemical; settings: recombinant human PDE-10, fluorescein-labeled cAMP/cGMP substrate, 40 min at 37° C.
property.name: IC50

>>> meas_value("C(=C\\c1nc(-c2ccccc2)c[nH]1)/c1ccccn1")
"> 10000 nM"
>>> meas_value("O=c1[nH]c(CCc2nc(-c3ccccc3)c[nH]2)nc2cnccc12")
"< 500 nM"
>>> meas_value("Cc1ncc(C)n2nc(CCc3ccc4ccccc4n3)nc12")
"< 500 nM"
>>> meas_value("Cc1ccc2nc(CCc3nc4c(C)ncc(C)n4n3)cnc2c1C")
"< 500 nM"
>>> meas_value("Cn1cc(-c2cccc(F)c2F)nc1CCc1cnc2ccccc2n1")
"< 500 nM"
>>> meas_value("O=c1[nH]c(CCc2nc3ccccc3o2)nc2ccccc12")
"> 10000 nM"
>>> meas_value("O=c1[nH]c(CCc2nc(-c3ccccc3C(F)(F)F)c[nH]2)nc2ccccc12")
"1000 to 10000 nM"
>>> meas_value("c1coc(-c2c[nH]c(CCc3cnc4ccccc4n3)n2)c1")
"< 500 nM"
>>> meas_value("C(=C\\c1nc(-c2ccccc2)c[nH]1)/c1ccccc1")
"> 10000 nM"
>>> meas_value("Cn1cc(-c2cccc(F)c2F)nc1CCc1ccc2ccccc2n1")
"500 to 1000 nM"
>>> meas_value("COc1cc2nc(CCc3cnc4ccccc4n3)[nH]c2cc1OC")
"1000 to 10000 nM"
>>> meas_value("Cn1cc(-c2ccccc2)nc1CCc1ncc2ccccc2n1")
"< 500 nM"
>>> meas_value("COc1cc2nc(CCc3nc(-c4ccccc4)c[nH]3)[nH]c(=O)c2cc1OC")
"> 10000 nM"
>>> meas_value("Cc1cc2c(nc(CCc3ccc4ccccc4n3)n2C)c2cccnc12")
"> 10000 nM"
>>> meas_value("c1ccc(-c2c[nH]c(CCc3cnc4ccncc4n3)n2)cc1")
"< 500 nM"
>>> meas_value("c1ccc(-c2c[nH]c(CCc3ccc4ccccc4c3)n2)cc1")
"> 10000 nM"
>>> meas_value("O=c1[nH]c(CCc2nc(-c3ccccc3)c[nH]2)cc2ccccc12")
"< 500 nM"
>>> meas_value("O=c1oc(CCc2nc(-c3ccccc3)c[nH]2)nc2ccccc12")
"1000 to 10000 nM"
>>> meas_value("Cn1cc(-c2ccccc2)nc1CCc1cccc(-c2ccncc2)n1")
"1000 to 10000 nM"

* * *

molecular target: recombinant human PDE-10 enzyme (PDE-10A) (Homo sapiens (Human), UniProt Q9Y233); test: IMAP PDE Fluorescence Polarization assay, human PDE-10 inhibition (enzyme assay); type: biochemical; details: recombinant human PDE-10, fluorescein-labeled cAMP/cGMP substrate, 40 min at 37° C.
Sequence (Q9Y233 whole entry): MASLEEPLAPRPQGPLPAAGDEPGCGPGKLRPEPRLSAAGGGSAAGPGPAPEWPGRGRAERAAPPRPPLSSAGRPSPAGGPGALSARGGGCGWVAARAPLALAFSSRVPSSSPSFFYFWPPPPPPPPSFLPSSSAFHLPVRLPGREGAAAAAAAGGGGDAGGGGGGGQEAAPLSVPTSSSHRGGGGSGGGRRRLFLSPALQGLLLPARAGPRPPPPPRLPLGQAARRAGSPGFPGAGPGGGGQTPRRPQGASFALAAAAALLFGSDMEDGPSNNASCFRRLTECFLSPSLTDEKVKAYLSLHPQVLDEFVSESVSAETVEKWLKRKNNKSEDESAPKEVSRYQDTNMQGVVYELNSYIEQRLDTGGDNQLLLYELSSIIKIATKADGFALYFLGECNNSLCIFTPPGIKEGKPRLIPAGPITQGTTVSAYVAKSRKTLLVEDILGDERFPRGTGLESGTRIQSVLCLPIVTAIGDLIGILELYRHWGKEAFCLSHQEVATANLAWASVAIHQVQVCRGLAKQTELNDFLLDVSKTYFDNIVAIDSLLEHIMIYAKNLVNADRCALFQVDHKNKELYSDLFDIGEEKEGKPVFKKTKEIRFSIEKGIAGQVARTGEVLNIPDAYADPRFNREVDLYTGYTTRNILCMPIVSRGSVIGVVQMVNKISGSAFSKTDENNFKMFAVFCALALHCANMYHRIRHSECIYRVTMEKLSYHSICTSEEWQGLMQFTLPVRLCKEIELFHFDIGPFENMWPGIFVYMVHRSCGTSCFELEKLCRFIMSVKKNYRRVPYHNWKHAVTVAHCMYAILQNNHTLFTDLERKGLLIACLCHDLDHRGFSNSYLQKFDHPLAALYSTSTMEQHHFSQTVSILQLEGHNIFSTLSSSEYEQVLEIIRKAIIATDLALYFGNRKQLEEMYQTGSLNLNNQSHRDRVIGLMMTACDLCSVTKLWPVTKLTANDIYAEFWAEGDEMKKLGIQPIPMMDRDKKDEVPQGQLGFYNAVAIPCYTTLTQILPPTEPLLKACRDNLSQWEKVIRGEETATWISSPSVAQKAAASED
pIC50: −log10 of the molar value.
# maps each entry to its pIC50
property.name: pIC50

>>> meas_value("Cc1c(CCc2ccc3cc(F)cnc3n2)nc2c3cccnc3ccn12")
"> 6.30"
>>> meas_value("Cn1c(CCc2ccc3ccccc3n2)nc2c3cccnc3ccc21")
"> 6.30"
>>> meas_value("c1cnc2nc(CCc3nc4c5cccnc5ccn4n3)ccc2c1")
"6.00 to 6.30"
>>> meas_value("Fc1cccc(-c2c[nH]c(CCc3cnc4ccccc4n3)n2)c1")
"> 6.30"
>>> meas_value("O=c1[nH]c(/C=C/c2nc3ccccc3[nH]2)nc2ccccc12")
"< 5.00"

* * *

Measured pIC50 of individual entries
Target: recombinant human PDE-10 enzyme (PDE-10A) (Homo sapiens (Human), UniProt Q9Y233)
Experiment: IMAP PDE Fluorescence Polarization assay, human PDE-10 inhibition (enzyme assay)
Type: biochemical
Details: recombinant human PDE-10, fluorescein-labeled cAMP/cGMP substrate, 40 min at 37° C.
Procedure: In one embodiment, the compounds provided herein were assayed for their ability to inhibit human PDE-10A. In one embodiment, the activities of the compounds were determined using the Molecular Devices IMAP PDE Fluorescence Polarization assay using recombinant human PDE-10 enzyme expressed in a baculoviral system. […] The data was analyzed using Prism Software (GraphPad Inc, San Diego, Calif.).
pIC50: −log10 of the molar value.
property.name: pIC50

>>> meas_value("Cn1cc(-c2ccco2)nc1CCc1ccc2ccccc2n1")
"> 6.30"
>>> meas_value("Cc1cccc(-c2c[nH]c(CCc3nc4ccccc4c(=O)[nH]3)n2)c1")
"> 6.30"
>>> meas_value("Cn1c(CCc2nc(-c3ccccc3)c[nH]2)nc2ccccc2c1=O")
"5.00 to 6.00"
>>> meas_value("c1ccc2nc(CCc3nc(-c4ccsc4)c[nH]3)cnc2c1")
"> 6.30"
>>> meas_value("c1ccc2nc(CCc3nc(-c4ccncc4)c[nH]3)ccc2c1")
"5.00 to 6.00"
>>> meas_value("O=c1[nH]c(CCc2nc(-c3cccc4ccccc34)c[nH]2)nc2ccccc12")
"5.00 to 6.00"
>>> meas_value("c1ccc2nc(CCc3cn4ccccc4n3)cnc2c1")
"5.00 to 6.00"
>>> meas_value("O=c1[nH]c(CCc2nc(-c3ccc(-c4ccccc4)cc3)c[nH]2)nc2ccccc12")
"< 5.00"
>>> meas_value("Cn1c(CCc2cccc(-c3ccccn3)n2)nc2c3cccnc3ccc21")
"6.00 to 6.30"

* * *

target: recombinant human PDE-10 enzyme (PDE-10A) (Homo sapiens (Human), UniProt Q9Y233); test: IMAP PDE Fluorescence Polarization assay, human PDE-10 inhibition (enzyme assay); type: biochemical; settings: recombinant human PDE-10, fluorescein-labeled cAMP/cGMP substrate, 40 min at 37° C.
pIC50: −log10 of the molar value.
property.name: pIC50

>>> meas_value("Cn1c(CCc2ccc3ccccc3n2)nc2ccc3ccccc3c21")
"5.00 to 6.00"
>>> meas_value("Cn1c(CCc2ccc3cccnc3n2)nc2c3cccnc3ccc21")
"> 6.30"
>>> meas_value("Fc1cccc(-c2c[nH]c(CCc3cnc4ccccc4n3)n2)c1F")
"> 6.30"
>>> meas_value("O=c1[nH]c(CCc2nc(-c3ccccc3)c[nH]2)nc2ccncc12")
"> 6.30"
>>> meas_value("c1ccc2nc(CCc3nc(-c4ccncc4)c[nH]3)cnc2c1")
"5.00 to 6.00"

* * *

molecular target: recombinant human PDE-10 enzyme (PDE-10A) (Homo sapiens (Human), UniProt Q9Y233); test: IMAP PDE Fluorescence Polarization assay, human PDE-10 inhibition (enzyme assay); format: biochemical; settings: recombinant human PDE-10, fluorescein-labeled cAMP/cGMP substrate, 40 min at 37° C.
pIC50: −log10 of the molar value.
property.name: pIC50

>>> meas_value("Cc1nc2ccccc2nc1CCc1nc2ccccc2[nH]1")
"6.00 to 6.30"
>>> meas_value("Cn1c(CCc2ccc3ncccc3n2)nc2c3cccnc3ccc21")
"> 6.30"
>>> meas_value("c1ccc(-c2c[nH]c(Sc3cnc4ccccc4n3)n2)cc1")
"> 6.30"
>>> meas_value("c1ccc(-c2c[nH]c(CCc3cnc4cccnc4n3)n2)cc1")
"> 6.30"
>>> meas_value("O=c1[nH]c(CCc2nc3ccccc3s2)nc2ccccc12")
"< 5.00"
>>> meas_value("Cc1ccc(C)c2nc(CCc3nc4c(ccc5ncccc54)[nH]3)cnc12")
"> 6.30"
>>> meas_value("c1ccc(CCc2nc(-c3ccccc3)c[nH]2)cc1")
"5.00 to 6.00"
>>> meas_value("Cn1c(CCc2nc3ccccc3c(=O)[nH]2)nc2ccccc21")
"< 5.00"
>>> meas_value("c1coc(-c2c[nH]c(CCc3ccc4ccccc4n3)n2)c1")
"6.00 to 6.30"
>>> meas_value("Cn1c(CCc2ccc3cnccc3n2)nc2c3ncccc3ccc21")
"> 6.30"
>>> meas_value("c1ccc(-c2csc(CCc3cnc4ccccc4n3)n2)cc1")
"> 6.30"
>>> meas_value("Cn1c(CCc2cnc3ccccc3n2)nc2ccc3ncccc3c21")
"5.00 to 6.00"
>>> meas_value("c1ccc(-c2c[nH]c(OCc3cnc4ccccc4n3)n2)cc1")
"> 6.30"
>>> meas_value("c1ccc2nc(CCc3nc4ccc5ncccc5n4n3)cnc2c1")
"6.00 to 6.30"
>>> meas_value("Cc1cnc(C)c(CCc2nc3c4cccnc4ccc3n2C)n1")
"> 6.30"
>>> meas_value("Cc1c(CCc2ccc3cccnc3n2)nc2c3cccnc3ccn12")
"> 6.30"
>>> meas_value("O=c1[nH]c(CCc2nc(-c3ccccc3)cs2)nc2ccccc12")
"> 6.30"
>>> meas_value("O=c1[nH]c(CCc2nc(-c3ccccc3)c[nH]2)nc2cc3ccccc3cc12")
"< 5.00"
>>> meas_value("c1ccc(-c2cccc(CCc3cnc4ccccc4n3)n2)cc1")
"< 5.00"
>>> meas_value("Cn1cc(-c2ccco2)nc1CCc1cnc2ccccc2n1")
"> 6.30"
>>> meas_value("c1ccc2nc(CCc3cnc4ccccc4n3)cnc2c1")
"5.00 to 6.00"
>>> meas_value("c1cnc2c(c1)ccc1ccc(CCc3nc4ccccn4n3)nc12")
"> 6.30"
>>> meas_value("Cc1ncc(C)n2nc(CCc3ccc4ccncc4n3)nc12")
"5.00 to 6.00"
>>> meas_value("Cc1c(CCc2ccc3ncccc3n2)nc2c3cccnc3ccn12")
"> 6.30"
>>> meas_value("c1cncc(-c2c[nH]c(CCc3cnc4ccccc4n3)n2)c1")
"> 6.30"
>>> meas_value("c1cnc2c(c1)ccn1nc(CCc3cnc4ccccc4n3)nc21")
"> 6.30"
